Reference source: patent US20250197488A1

TARGET OR SYSTEM: T1, human IL-11 (AAH12506.1, Pro22-Leu199) (human, UniProt P20809 22-199)
T1 construct: The range Pro22-Leu199 counts on AAH12506.1; The Octet runs say only 'human IL-11'; also called hIL-11
T1 chain: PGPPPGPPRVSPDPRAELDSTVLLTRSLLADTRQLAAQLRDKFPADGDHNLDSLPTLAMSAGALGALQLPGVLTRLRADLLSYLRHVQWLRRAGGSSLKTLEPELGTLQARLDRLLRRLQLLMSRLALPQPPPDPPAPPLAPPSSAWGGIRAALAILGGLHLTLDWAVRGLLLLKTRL
MEASUREMENT DESCRIPTION: BLI (Octet), antibody captured, human IL-11 in solution
REPORTED METRIC: Kd (nM)
One number for each entry, in nM.

Entry hz8C8-VHm1-m12 + hz8C8-VLm7-m2 (antibody, human IgG1, kappa, V domains shown, human IgG1 constant regions) VH: EVQLVESGGGLVQPGGSLRLSCAASGFTFSSFGMHWVRQAPGKGLEWVAYITPGSNTIYYADTVKGRFTISRDNAKNSLYLQMNSLRAEDTAVYYCAREYYSYDEGGAYWGQGTLVTVSS VL: EIVLTQSPATLSLSPGERATLSCSVSDLIPSQYLHWYQQKPGQAPRLLIYDASNLASGIPARFSGSGSGTDFTLTISSLEPEDFAVYYCQQGVDVPFTFGQGTKLEIKR , Kd reported as 7.95
